Where do these numbers come from? They come from PubChem BioAssay (NCATS).

assayOverview: qHTS of pediatric cancer cell lines to identify multiple opportunities for drug repurposing: Primary screen for OHS-50 cells (AID 1347103); also: nearly all actives have a fitted effect of over 40% in size
details: OHS-50 osteosarcoma viability, CellTiter-Glo luminescence, 48 h; series mostly up to 57.3 µM
Records with an inconclusive call do not appear. The source made the active and inactive calls. Calls follow the shape of the dose curve; as a rule, active = well fitted cell-killing curve with a large enough effect; inconclusive = small, poorly fitted or top-dose-only effect; inactive = no such curve, though single readings can be large or run the other way.
Please state which outcome applies, choosing from yes (1) = active, no (0) = inactive

Example cases with answers are listed next.
compound	label
CCC(=O)Nc1ccc(O)cc1	no (0)
OCc1cc(C(O)CNCCCCCCOCCCCc2ccccc2)ccc1O (configuration not stated)	yes (1)
CC(=O)O[C@@]12CO[C@@H]1C[C@H](O)[C@@]1(C)C(=O)[C@H](O)C3=C(C)[C@@H](OC(=O)[C@H](O)[C@@H](NC(=O)OC(C)(C)C)c4ccccc4)C[C@@](O)([C@@H](OC(=O)c4ccccc4)[C@H]21)C3(C)C	yes (1)
CCN(CC)CCCC(C)Nc1c2ccc(Cl)cc2nc2ccc(OC)cc12 (configuration not stated)	yes (1)
CCCc1c(OCCCCc2nn[nH]n2)ccc(C(C)=O)c1O	no (0)
COc1ccccc1O	no (0)
O=C1NS(=O)(=O)c2ccccc21	no (0)
O=C1Nc2ccc(Cl)cc2[C@@](C#CC2CC2)(C(F)(F)F)O1	yes (1)
CC(C)(O)c1ccccc1CC[C@@H](SCC1(CC(=O)O)CC1)c1cccc(/C=C/c2ccc3ccc(Cl)cc3n2)c1	no (0)
CC1(C)S[C@@H]2[C@H](NC(=O)Cc3ccccc3)C(=O)N2[C@H]1C(=O)O (tested in a mixture with another compound)	no (0)

# lookup: test call for N[C@@H](CSCCCO)C(=O)O
no (0)

CCN(CC)C(=O)Nc1ccc(OCC(O)CNC(C)(C)C)c(C(C)=O)c1 (configuration not stated) ?
no (0)

NC1[C@H]2CN(c3nc4c(cc3F)c(=O)c(C(=O)O)cn4-c3ccc(F)cc3F)C[C@@H]12 (some centres not stated) ?
no (0)
